Source listed as the supplement of paper PMC10567573.

Please go through the items and note down their protein stability index.
B1: DVL3 (parent)
chain: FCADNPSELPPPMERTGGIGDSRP

Variants of: B1
EXPERIMENT_NOTES: protein stability index of a GFP-peptide fusion (GPS, HEK-293T) (PSI 1-6); higher = more stable;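 further: lentivirally expressed fusions sorted by FACS into six bins by GFP to DsRed ratio, PSI derived from sequencing read proportions per bin multiplied by bin number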
TEST_SETTINGS: c terminus: a fixed tail appended
Give bare numbers.

variant_identifier=D4T measured_result=4.29

For each listed entry, give its protein stability index.
1. P11E
2. G18C
3. G20K
4. P24W

A.
1. 4.05
2. 4.57
3. 4.32
4. 3.23
